- Test Description: in vitro
- Test Parameters: PAMPA
Task for the reader: assign each of the following compounds its reported Papp.
Numbers only, in ×10⁻⁶ cm/s.

A selection of reference data follows.
• C[n+]1c2c(c(N)c3ccc(Cl)cc31)CCCC2.[I-] [Compound 5] = 1.2
• CC1=CC2Cc3c(c(N)c4ccc(Cl)cc4[n+]3C)C(C1)C2.[I-] (stereo not drawn) [Compound 6] = 10.9

Then this compound:
Recall and state the measured Papp for C[n+]1c2c(c(N)c3ccccc31)CCCC2.[I-] [Compound 4] . 1.7

---

Task for the reader: assign each of the following compounds its reported Papp.
- Test Description: in vitro
- Test Parameters: pig, PAMPA
One number for each entry, in ×10⁻⁶ cm/s.

* COc1cc(CNC(=O)Cc2cn(CCNc3c4c(nc5ccccc35)CCCC4)nn2)ccc1O [Compound 15] | 0.03
* Nc1c2c(nc3cc(Cl)ccc13)CCCC2 [6-chlorotacrine, reference compound] | 19.8
* OCCc1cn(CCNc2c3c(nc4ccccc24)CCCC3)nn1 [Compound 9] | 0.03
* OCCc1cn(CCNc2c3c(nc4cc(Cl)ccc24)CCCC3)nn1 [Compound 10] | 0.02

Then this compound:
Recall and state the measured Papp for COc1cc(CNC(=O)Cc2cn(CCNc3c4c(nc5cc(Cl)ccc35)CCCC4)nn2)ccc1O [Compound 16] . 2.97

---

- Test Parameters: class from Pe value
Measure: PAMPA-BBB prediction of BBB permeation

• COc1cc(CNC(=O)Cc2cn(CCNc3c4c(nc5cc(Cl)ccc35)CCCC4)nn2)ccc1O = CNS±
